Reported MIC is given for each of the following compounds.
System: Morganella morganii
Experimental protocol: Antimicrobial activity against Morganella morganii expressing TEM-24b AmpC gene
Type: functional
Measured endpoint: MIC (µg/mL)

1) CO/N=C(\C(=O)N[C@@H]1C(=O)N2C(C(=O)O)=C(COC(C)=O)CS[C@H]12)c1csc(N)n1    16
2) CO[C@@]1(NC(=O)Cc2cccs2)C(=O)N2C(C(=O)O)=C(COC(N)=O)CS[C@@H]21    128
3) CC(C)(O/N=C(\C(=O)N[C@@H]1C(=O)N2C(C(=O)[O-])=C(C[n+]3ccccc3)CS[C@H]12)c1csc(N)n1)C(=O)O    128
4) C[C@@H](O)[C@H]1C(=O)N2C(C(=O)O)=C(S[C@@H]3CN[C@H](C(=O)Nc4cccc(C(=O)O)c4)C3)[C@H](C)[C@H]12    0.02
5) C[C@@H](O)[C@H]1C(=O)N2C(C(=O)O)=C(SCCNC=N)C[C@H]12 [IMIPENEM ANHYDROUS]    4
